Items are presented alongside their recorded pIC50.
biological target: RORc ligand binding domain (Homo sapiens); construct: host or cells: E. coli; assay: In Vitro RORc Ligand Binding Assay (25-[3H]hydroxycholesterol radioligand filtration); conditions: read-out: RORc IC50
Sequence (P51449 269-508 limits assumed, species assumed): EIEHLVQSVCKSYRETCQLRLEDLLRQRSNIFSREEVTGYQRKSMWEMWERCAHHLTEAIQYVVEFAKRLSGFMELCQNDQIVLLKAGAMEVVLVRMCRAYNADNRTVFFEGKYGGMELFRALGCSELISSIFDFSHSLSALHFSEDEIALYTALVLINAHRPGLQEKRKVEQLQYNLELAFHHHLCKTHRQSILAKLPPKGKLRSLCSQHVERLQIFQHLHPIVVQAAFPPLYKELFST
FYI, pIC50 means -log10 of a concentration in mol per litre.

compound	pIC50
CONC(=O)[C@@H]1CN(c2ccc(CN3[C@@H](C)CCC(c4ccccc4)S3(=O)=O)c(F)c2)CCN1C(C)=O (stereo partly drawn)	6.83

### Prompt Provide value of pIC50 for this record tested with RORc ligand binding domain (Homo sapiens): C[C@H]1CCC(c2ccccc2)S(=O)(=O)N1Cc1ccc(N2CCC(C)(n3cnnc3)CC2)cc1F (single isomer, unassigned) [Example 413]
### Response 7.49

### Prompt Provide value of pIC50 for this record tested with RORc ligand binding domain (Homo sapiens): C[C@H]1CCC(c2ccccc2)S(=O)(=O)N1Cc1ccc(OC2CCC(=O)NC2)cc1 (stereo partly drawn)
### Response 6.07

### Prompt Provide value of pIC50 for this record tested with RORc ligand binding domain (Homo sapiens): C[C@H]1CCC(c2ccccc2)S(=O)(=O)N1Cc1ccc(N2CCC(n3cnnn3)CC2)cc1 (stereo partly drawn)
### Response 7.15

### Prompt Provide value of pIC50 for this record tested with RORc ligand binding domain (Homo sapiens): CC1CN(S(C)(=O)=O)CCC1Nc1ccc(CN2[C@@H](C)CCC(c3ccccc3)S2(=O)=O)c(F)c1 (stereo partly drawn) [Example 451]
### Response 7.92

### Prompt Provide value of pIC50 for this record tested with RORc ligand binding domain (Homo sapiens): C[C@H]1CCC(c2ccccc2)S(=O)(=O)N1Cc1ccc(N2CCN3C(=O)CN(C)C(=O)[C@@H]3C2)cc1F (stereo partly drawn)
### Response 5.45

### Prompt Provide value of pIC50 for this record tested with RORc ligand binding domain (Homo sapiens): C[C@H]1CCC(c2ccccc2)S(=O)(=O)N1Cc1ccc(OCC2CC2)cc1 (stereo partly drawn)
### Response 6.19

### Prompt Provide value of pIC50 for this record tested with RORc ligand binding domain (Homo sapiens): C[C@H]1CCC(c2ccccc2)S(=O)(=O)N1Cc1ccc(N2CCN3C(=O)COCC3C2)cc1F (stereo partly drawn)
### Response 6.64

### Prompt Provide value of pIC50 for this record tested with RORc ligand binding domain (Homo sapiens): CNC(=O)[C@H]1CN(C(C)=O)CCN1c1ccc(CN2[C@@H](C)CCC(c3ccccc3)S2(=O)=O)c(F)c1 (stereo partly drawn)
### Response 6.61

### Prompt Provide value of pIC50 for this record tested with RORc ligand binding domain (Homo sapiens): C[C@H]1CCC(c2ccccc2)S(=O)(=O)N1Cc1ccc(OCCN2CCCC2=O)cc1 (stereo partly drawn)
### Response 6.49

### Prompt Provide value of pIC50 for this record tested with RORc ligand binding domain (Homo sapiens): C[C@H]1CCC(c2ccccc2)S(=O)(=O)N1Cc1ccc(NC(=O)C2CN(S(C)(=O)=O)C2)cc1F (stereo partly drawn)
### Response 7.01

### Prompt Provide value of pIC50 for this record tested with RORc ligand binding domain (Homo sapiens): C[C@H]1CCC(c2ccccc2)S(=O)(=O)N1Cc1ccc(N2CCn3c(cnc3C(N)=O)C2)cc1F (stereo partly drawn)
### Response 6.46
